The reported measurements were obtained from the kinase profiling compilation of Christmann-Franck et al. (2016).

Measured target: TEK (human) (UniProt Q02763)
Sequence (Q02763 whole entry, looked up): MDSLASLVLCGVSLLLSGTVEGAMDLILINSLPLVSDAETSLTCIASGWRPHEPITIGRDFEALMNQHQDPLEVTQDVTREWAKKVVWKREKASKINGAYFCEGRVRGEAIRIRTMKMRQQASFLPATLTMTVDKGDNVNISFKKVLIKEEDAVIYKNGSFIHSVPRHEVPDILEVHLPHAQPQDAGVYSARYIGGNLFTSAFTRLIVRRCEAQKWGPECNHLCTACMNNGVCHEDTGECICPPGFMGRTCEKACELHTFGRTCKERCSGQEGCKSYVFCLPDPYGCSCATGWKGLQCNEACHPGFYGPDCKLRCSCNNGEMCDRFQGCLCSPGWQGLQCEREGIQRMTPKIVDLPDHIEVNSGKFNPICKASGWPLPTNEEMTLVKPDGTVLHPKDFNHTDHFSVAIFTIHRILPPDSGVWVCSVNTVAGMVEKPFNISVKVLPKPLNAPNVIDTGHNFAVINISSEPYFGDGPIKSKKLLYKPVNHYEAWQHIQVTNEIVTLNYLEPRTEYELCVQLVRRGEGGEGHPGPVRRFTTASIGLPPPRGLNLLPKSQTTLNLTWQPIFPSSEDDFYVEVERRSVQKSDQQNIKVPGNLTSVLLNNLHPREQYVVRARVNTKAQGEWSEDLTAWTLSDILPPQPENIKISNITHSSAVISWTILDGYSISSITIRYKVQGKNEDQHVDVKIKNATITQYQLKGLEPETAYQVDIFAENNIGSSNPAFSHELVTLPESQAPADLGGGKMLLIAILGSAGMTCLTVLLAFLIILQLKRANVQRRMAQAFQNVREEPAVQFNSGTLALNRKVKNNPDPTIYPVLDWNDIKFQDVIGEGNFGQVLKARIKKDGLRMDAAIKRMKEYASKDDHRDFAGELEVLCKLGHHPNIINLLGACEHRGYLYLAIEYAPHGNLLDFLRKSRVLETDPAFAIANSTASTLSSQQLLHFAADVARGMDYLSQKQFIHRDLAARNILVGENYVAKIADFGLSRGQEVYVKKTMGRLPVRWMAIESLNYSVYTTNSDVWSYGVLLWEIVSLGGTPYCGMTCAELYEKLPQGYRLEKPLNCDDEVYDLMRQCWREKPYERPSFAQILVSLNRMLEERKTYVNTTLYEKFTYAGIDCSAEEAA
Assay explanation: radiometric filter-binding kinase assay, Kinase HotSpot
Particulars: compound 0.5 µM; ATP 10 µM
# Lookup of reported residual activity keyed by entry
Record the value in %, omitting the unit from your answer.

Illustrative cases are given below, each with its answer.
Molecule: Oc1ccc(-c2nc(-c3ccc(F)cc3)c(-c3ccncc3)[nH]2)cc1
Test value: 99.6
--
Molecule: CC(C)n1cnc2c(Nc3cccc(Cl)c3)nc(NCCO)nc21
Test value: 97.4
--
Molecule: CCCNC(=O)Nc1ccc(Oc2ncnc3cc(OC)c(OC)cc23)cc1Cl
Test value: 87
--
Molecule: O=C(NC(NC(=S)Nc1ccc(F)c([N+](=O)[O-])c1)C(Cl)(Cl)Cl)C(c1ccccc1)c1ccccc1 (configuration not stated)
Test value: 97.8

IN: Provide the documented residual activity with TEK (human) (UniProt Q02763) as the system for O=C(Nc1ccc(Cl)cc1)c1ccccc1NCc1ccncc1
OUT: 92.4

IN: Provide the documented residual activity with TEK (human) (UniProt Q02763) as the system for COc1cc2nccc(Oc3ccc(NC(=S)NC(=O)c4ccccc4C)cc3)c2cc1OC
OUT: 90.1

IN: Provide the documented residual activity with TEK (human) (UniProt Q02763) as the system for CS(=O)c1ccc(-c2nc(-c3ccc(F)cc3)c(-c3ccncc3)[nH]2)cc1 (configuration not stated)
OUT: 94.5

IN: Provide the documented residual activity with TEK (human) (UniProt Q02763) as the system for CSc1nc(-c2ccc(F)cc2)c(-c2ccnc(NC(C)c3ccccc3)c2)[nH]1 (configuration not stated)
OUT: 90.5

IN: Provide the documented residual activity with TEK (human) (UniProt Q02763) as the system for Nc1n[nH]c2nnc(-c3c(-c4ccccc4)nn4ccccc34)cc12
OUT: 96.6

IN: Provide the documented residual activity with TEK (human) (UniProt Q02763) as the system for O=C1Cc2c([nH]c3ccc([N+](=O)[O-])cc23)-c2ccccc2N1
OUT: 92.1

IN: Provide the documented residual activity with TEK (human) (UniProt Q02763) as the system for Nc1nc(Nc2ccc(S(N)(=O)=O)cc2)nn1C(=S)Nc1c(F)cccc1F
OUT: 5.06

IN: Provide the documented residual activity with TEK (human) (UniProt Q02763) as the system for COc1cc2ncnc(Nc3ccc(F)c(Cl)c3)c2cc1OCCCN1CCOCC1
OUT: 96.2

IN: Provide the documented residual activity with TEK (human) (UniProt Q02763) as the system for O=c1cc(N2CCNCC2)oc2c(-c3ccccc3)cccc12
OUT: 95

IN: Provide the documented residual activity with TEK (human) (UniProt Q02763) as the system for Clc1ccc(Nc2nnc(Cc3ccncc3)c3ccccc23)cc1
OUT: 97.5

IN: Provide the documented residual activity with TEK (human) (UniProt Q02763) as the system for COc1ccc(-c2cnc3c(-c4ccsc4)cnn3c2)cc1
OUT: 99.1

IN: Provide the documented residual activity with TEK (human) (UniProt Q02763) as the system for O=C1Nc2cc(Br)ccc2/C1=C1/Nc2ccccc2/C1=N\O
OUT: 96.7

IN: Provide the documented residual activity with TEK (human) (UniProt Q02763) as the system for C#Cc1cccc(Nc2ncnc3cc(OCCOC)c(OCCOC)cc23)c1
OUT: 94

IN: Provide the documented residual activity with TEK (human) (UniProt Q02763) as the system for O=c1cc(-c2cccc3c2Sc2ccccc2S3)oc(N2CCOCC2)c1
OUT: 100

IN: Provide the documented residual activity with TEK (human) (UniProt Q02763) as the system for O=C1Nc2ccccc2/C1=C\c1c(Cl)[nH]c2ccccc12
OUT: 97.1

IN: Provide the documented residual activity with TEK (human) (UniProt Q02763) as the system for Cc1cc2ncc(-c3ccccc3)nc2cc1C
OUT: 99.7

IN: Provide the documented residual activity with TEK (human) (UniProt Q02763) as the system for NC(=O)c1ccc(N(C(N)=O)c2c(F)cccc2F)nc1-c1ccc(F)cc1F
OUT: 96.7

IN: Provide the documented residual activity with TEK (human) (UniProt Q02763) as the system for CCN1/C(=C/C(C)=O)Sc2ccc(OC)cc21
OUT: 102

* * *

Measured target: MAPK9 (human)
Assay explanation: radiometric filter-binding kinase assay, Kinase HotSpot
Particulars: compound 0.5 µM; ATP 10 µM
Metric: residual activity

Illustrative cases are given below, each with its answer.
Compound: O=C(NC(NC(=S)Nc1ccc(F)c([N+](=O)[O-])c1)C(Cl)(Cl)Cl)C(c1ccccc1)c1ccccc1 (centres undefined)
residual activity: 88.6%

Compound: O=c1cc(-c2cccc3c2Sc2ccccc2S3)oc(N2CCOCC2)c1
residual activity: 97.7%

Compound: COc1cc2ncnc(Nc3ccc(F)c(Cl)c3)c2cc1OCCCN1CCOCC1
residual activity: 95.5%

Compound: CCCNC(=O)Nc1ccc(Oc2ncnc3cc(OC)c(OC)cc23)cc1Cl
residual activity: 104%

IN: Look at this compound and give its reported residual activity. CC(C)(C)c1nc2c3ccc(F)cc3c3c(=O)[nH]ccc3c2[nH]1
OUT: 31.1%

* * *

Measured target: PASK (human) (UniProt Q96RG2)
Sequence (Q96RG2 whole entry, looked up): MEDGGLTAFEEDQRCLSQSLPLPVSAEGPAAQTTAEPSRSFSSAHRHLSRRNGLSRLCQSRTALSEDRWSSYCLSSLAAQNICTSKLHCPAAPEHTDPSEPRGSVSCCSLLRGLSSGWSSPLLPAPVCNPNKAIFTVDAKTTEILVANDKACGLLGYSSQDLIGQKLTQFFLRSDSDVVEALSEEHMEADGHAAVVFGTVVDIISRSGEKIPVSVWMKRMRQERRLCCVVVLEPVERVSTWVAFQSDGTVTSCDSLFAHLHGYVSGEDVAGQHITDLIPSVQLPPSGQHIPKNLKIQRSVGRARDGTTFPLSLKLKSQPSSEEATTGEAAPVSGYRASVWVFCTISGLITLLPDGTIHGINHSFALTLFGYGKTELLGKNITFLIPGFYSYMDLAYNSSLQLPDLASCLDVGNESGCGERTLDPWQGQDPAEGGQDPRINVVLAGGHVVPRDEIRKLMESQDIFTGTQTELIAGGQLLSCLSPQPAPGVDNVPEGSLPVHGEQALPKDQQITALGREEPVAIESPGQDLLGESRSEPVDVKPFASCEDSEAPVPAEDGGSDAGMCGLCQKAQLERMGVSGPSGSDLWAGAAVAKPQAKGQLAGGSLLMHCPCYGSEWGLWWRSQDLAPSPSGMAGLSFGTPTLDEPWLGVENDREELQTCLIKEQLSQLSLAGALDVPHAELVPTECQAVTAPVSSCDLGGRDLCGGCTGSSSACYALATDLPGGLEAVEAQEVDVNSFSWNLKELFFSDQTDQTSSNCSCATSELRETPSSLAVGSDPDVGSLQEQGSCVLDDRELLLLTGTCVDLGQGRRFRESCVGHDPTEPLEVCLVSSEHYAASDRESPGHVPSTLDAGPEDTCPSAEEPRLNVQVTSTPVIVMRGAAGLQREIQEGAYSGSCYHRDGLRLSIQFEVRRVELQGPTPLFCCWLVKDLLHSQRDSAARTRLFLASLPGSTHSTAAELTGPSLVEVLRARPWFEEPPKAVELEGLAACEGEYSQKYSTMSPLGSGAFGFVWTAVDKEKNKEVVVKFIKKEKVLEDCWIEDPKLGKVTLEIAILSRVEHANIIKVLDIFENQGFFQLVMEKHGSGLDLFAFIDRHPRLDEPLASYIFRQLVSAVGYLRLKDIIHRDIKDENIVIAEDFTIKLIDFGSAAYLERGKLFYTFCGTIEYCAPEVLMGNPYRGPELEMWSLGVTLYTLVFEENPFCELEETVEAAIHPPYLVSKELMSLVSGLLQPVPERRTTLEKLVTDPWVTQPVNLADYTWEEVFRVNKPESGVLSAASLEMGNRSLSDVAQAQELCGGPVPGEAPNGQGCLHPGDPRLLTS
Assay explanation: radiometric filter-binding kinase assay, Kinase HotSpot
Particulars: compound 0.5 µM; ATP 10 µM
# Lookup of reported residual activity keyed by entry
Record the value in %, omitting the unit from your answer.

Compound: O=C1Nc2ccccc2/C1=C\c1c(Cl)[nH]c2ccccc12
Measured target: PASK (human) (UniProt Q96RG2)
residual activity (%): 89.3

IN: Provide the documented residual activity with PASK (human) (UniProt Q96RG2) as the system for CCCNC(=O)Nc1ccc(Oc2ncnc3cc(OC)c(OC)cc23)cc1Cl
OUT: 87.7

IN: Provide the documented residual activity with PASK (human) (UniProt Q96RG2) as the system for CC(C)(C)c1nc2c3ccc(F)cc3c3c(=O)[nH]ccc3c2[nH]1
OUT: 83.2

IN: Provide the documented residual activity with PASK (human) (UniProt Q96RG2) as the system for Cc1cc2ncc(-c3ccccc3)nc2cc1C
OUT: 82.1

IN: Provide the documented residual activity with PASK (human) (UniProt Q96RG2) as the system for O=C1Nc2cc(Br)ccc2/C1=C1/Nc2ccccc2/C1=N\O
OUT: 97.9

IN: Provide the documented residual activity with PASK (human) (UniProt Q96RG2) as the system for CC(C)[C@H](CO)Nc1nc(Nc2cccc(Cl)c2)c2ncn(C(C)C)c2n1
OUT: 93.1

IN: Provide the documented residual activity with PASK (human) (UniProt Q96RG2) as the system for CSc1nc(-c2ccc(F)cc2)c(-c2ccnc(NC(C)c3ccccc3)c2)[nH]1 (stereo not given)
OUT: 95.7

IN: Provide the documented residual activity with PASK (human) (UniProt Q96RG2) as the system for Nc1n[nH]c2nnc(-c3c(-c4ccccc4)nn4ccccc34)cc12
OUT: 99.8

IN: Provide the documented residual activity with PASK (human) (UniProt Q96RG2) as the system for O=C(Nc1ccc(Cl)cc1)c1ccccc1NCc1ccncc1
OUT: 97.1

IN: Provide the documented residual activity with PASK (human) (UniProt Q96RG2) as the system for CC(C)n1cnc2c(Nc3cccc(Cl)c3)nc(NCCO)nc21
OUT: 92.7

* * *

# Lookup of reported residual activity keyed by entry
Measured target: CDC42BPA (human) (UniProt Q5VT25)
Sequence (Q5VT25 whole entry, looked up): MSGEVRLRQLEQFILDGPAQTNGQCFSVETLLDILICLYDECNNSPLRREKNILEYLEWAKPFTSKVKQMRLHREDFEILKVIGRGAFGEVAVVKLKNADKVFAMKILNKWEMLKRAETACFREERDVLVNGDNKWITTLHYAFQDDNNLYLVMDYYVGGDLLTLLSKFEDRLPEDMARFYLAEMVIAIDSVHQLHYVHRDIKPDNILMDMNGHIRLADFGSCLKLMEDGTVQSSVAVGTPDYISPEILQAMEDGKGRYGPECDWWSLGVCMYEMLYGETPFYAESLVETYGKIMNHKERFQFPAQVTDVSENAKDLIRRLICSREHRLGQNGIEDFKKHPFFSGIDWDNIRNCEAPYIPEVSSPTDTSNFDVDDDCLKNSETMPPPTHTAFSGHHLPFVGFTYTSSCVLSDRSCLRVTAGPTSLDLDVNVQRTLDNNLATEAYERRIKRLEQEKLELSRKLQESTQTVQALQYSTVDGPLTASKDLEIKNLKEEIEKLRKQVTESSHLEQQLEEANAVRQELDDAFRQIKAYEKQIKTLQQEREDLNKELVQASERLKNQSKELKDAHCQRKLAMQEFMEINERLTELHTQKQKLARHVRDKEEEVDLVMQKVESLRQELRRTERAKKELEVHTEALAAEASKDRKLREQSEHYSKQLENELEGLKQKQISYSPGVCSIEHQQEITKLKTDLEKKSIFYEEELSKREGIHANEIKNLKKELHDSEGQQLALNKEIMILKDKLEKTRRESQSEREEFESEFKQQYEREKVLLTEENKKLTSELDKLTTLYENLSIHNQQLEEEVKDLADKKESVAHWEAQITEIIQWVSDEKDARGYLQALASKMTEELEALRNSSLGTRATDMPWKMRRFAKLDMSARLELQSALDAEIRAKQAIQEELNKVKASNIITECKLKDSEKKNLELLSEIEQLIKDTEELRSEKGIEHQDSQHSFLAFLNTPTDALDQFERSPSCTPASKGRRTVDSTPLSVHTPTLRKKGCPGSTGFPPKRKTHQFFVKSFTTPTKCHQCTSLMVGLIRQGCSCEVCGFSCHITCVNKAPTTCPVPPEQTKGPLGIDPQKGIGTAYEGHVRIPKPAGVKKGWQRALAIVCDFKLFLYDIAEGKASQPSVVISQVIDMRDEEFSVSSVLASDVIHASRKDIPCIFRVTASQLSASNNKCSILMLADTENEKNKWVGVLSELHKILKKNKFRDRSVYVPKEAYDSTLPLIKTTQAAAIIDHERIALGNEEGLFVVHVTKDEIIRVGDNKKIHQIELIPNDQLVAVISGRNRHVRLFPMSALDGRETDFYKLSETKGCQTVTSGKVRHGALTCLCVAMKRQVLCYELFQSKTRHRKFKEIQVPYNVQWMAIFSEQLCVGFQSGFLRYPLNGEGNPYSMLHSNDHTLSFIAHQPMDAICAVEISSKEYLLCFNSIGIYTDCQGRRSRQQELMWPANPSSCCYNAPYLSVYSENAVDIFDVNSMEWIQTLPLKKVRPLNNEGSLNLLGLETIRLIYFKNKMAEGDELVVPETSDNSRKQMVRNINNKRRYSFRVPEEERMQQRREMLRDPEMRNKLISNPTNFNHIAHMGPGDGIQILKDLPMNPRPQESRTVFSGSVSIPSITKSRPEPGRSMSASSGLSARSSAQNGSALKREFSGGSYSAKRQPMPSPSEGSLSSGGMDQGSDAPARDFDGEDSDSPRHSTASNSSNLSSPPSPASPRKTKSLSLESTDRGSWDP
Assay explanation: radiometric filter-binding kinase assay, Kinase HotSpot
Particulars: compound 0.5 µM; ATP 10 µM
Record the value in %, omitting the unit from your answer.

Illustrative cases are given below, each with its answer.
Molecule: O=C(NC(NC(=S)Nc1ccc(F)c([N+](=O)[O-])c1)C(Cl)(Cl)Cl)C(c1ccccc1)c1ccccc1 (stereo not given)
residual activity (%): 111

Molecule: CC(C)(C)c1nc2c3ccc(F)cc3c3c(=O)[nH]ccc3c2[nH]1
residual activity (%): 95.7

Molecule: Nc1n[nH]c2nnc(-c3c(-c4ccccc4)nn4ccccc34)cc12
residual activity (%): 89.7

IN: Provide the documented residual activity with CDC42BPA (human) (UniProt Q5VT25) as the system for COc1cc2ncnc(Nc3ccc(F)c(Cl)c3)c2cc1OCCCN1CCOCC1
OUT: 87.8

IN: Provide the documented residual activity with CDC42BPA (human) (UniProt Q5VT25) as the system for COc1cc2nccc(Oc3ccc(NC(=S)NC(=O)c4ccccc4C)cc3)c2cc1OC
OUT: 93.9

IN: Provide the documented residual activity with CDC42BPA (human) (UniProt Q5VT25) as the system for CSc1nc(-c2ccc(F)cc2)c(-c2ccnc(NC(C)c3ccccc3)c2)[nH]1 (stereo not given)
OUT: 97.5

IN: Provide the documented residual activity with CDC42BPA (human) (UniProt Q5VT25) as the system for CS(=O)c1ccc(-c2nc(-c3ccc(F)cc3)c(-c3ccncc3)[nH]2)cc1 (stereo not given)
OUT: 94.3

IN: Provide the documented residual activity with CDC42BPA (human) (UniProt Q5VT25) as the system for Nc1nc(Nc2ccc(S(N)(=O)=O)cc2)nn1C(=O)c1c(F)cccc1F
OUT: 97.5

IN: Provide the documented residual activity with CDC42BPA (human) (UniProt Q5VT25) as the system for Nc1nc(Nc2ccc(S(N)(=O)=O)cc2)nn1C(=S)Nc1c(F)cccc1F
OUT: 54.6

IN: Provide the documented residual activity with CDC42BPA (human) (UniProt Q5VT25) as the system for NC(=O)c1ccc(N(C(N)=O)c2c(F)cccc2F)nc1-c1ccc(F)cc1F
OUT: 93.8
